system: SW-620; experiment: NCI tumour cell line growth inhibition, 48 h
Active and inactive are the calls of the source. No stated cut-off is given here; in the data, active = GI50 up to about 1.1 µM and inactive = higher.
OBSERVATION_TYPE: GI50

Some solved cases for reference:
*Q* Sample `O=C(CCl)N1CCN(c2ccccc2)CC1` — what was its GI50?
*A* 23.4 µM (inactive)

*Q* How about `C/C=C/c1cc2c(c(=O)o1)C(=O)[C@@H](O)[C@H](C)O2` ?
*A* 11 µM (inactive)

---
*Q* GI50 for `C=C(C)C(=O)O[C@H]1[C@H]2[C@H](OC(=O)[C@H]2C)[C@H](O)[C@@H](C)[C@@H]2C=CC(=O)[C@]21C` ?
*A* 2.72 µM (inactive)

---

test system: SF-268; test: NCI tumour cell line growth inhibition, 48 h
Activity calls are given as the source filed them. No stated cut-off is given here; in the data, active = GI50 up to about 1.1 µM and inactive = higher.
Valid outcomes are listed here; reply with one: class 1 for active, class 0 for inactive

*Q* For COc1ccc(C(=O)N2c3ccccc3N(C)n3cccc3C2CC(=O)O)cc1 (stereo not drawn) , which call appears in the assay record?
*A* class 0

*Q* What do you have for `COc1ccc(OCc2ccc3nc(-c4ccccc4)c(Cl)nc3c2)cc1` ?
*A* class 0

*Q* Let us now turn to `C[N+](C)(C)CC(=O)N/N=C\c1c(O)ccc2ccccc12`
*A* class 0

*Q* Same thing, different compound: `Cn1c(-c2cccc(N)c2)[n+](C)c2ccccc21`
*A* class 0

*Q* Entry `CCOC(=O)Cc1csc(Nc2ccc(OCC)cc2)n1` please
*A* class 0

*Q* Quick one: `C[N+](C)(C)CC(=O)N/N=C(\Cc1nc2ccc([N+](=O)[O-])cc2nc1O)C(=O)Nc1nc2ccc([N+](=O)[O-])cc2s1`
*A* class 0

Next:
*Q* Hey, what did the test say about `Oc1cnnc2nc3ccccc3n12` ?
*A* class 0

*Q* Same lookup for `CC(=O)Oc1c(Br)ccc2cc(C(Br)Br)c(C(=O)c3ccccc3)nc12` , please.
*A* class 0

*Q* Similarly, `Cc1n[nH]c(=O)n1/N=C\c1ccccc1` ?
*A* class 1

---

tested on: EKVX; assay: NCI tumour cell line growth inhibition, 48 h
Active and inactive are the calls of the source. No stated cut-off is given here; in the data, active = GI50 up to about 1.1 µM and inactive = higher.
OBSERVATION_TYPE: GI50

Reference set, count: 2
*Q* API: value(readout=GI50, system=EKVX) for record `CCCCOC(=O)NC(Nc1ccc(S(N)(=O)=O)cc1)(C(F)(F)F)C(F)(F)F`
*A* > 100 µM (inactive)

*Q* Next record, please: `CCOC(=N)CC(=O)Nc1ccc(Cl)cc1`
*A* > 100 µM (inactive)

The record that follows has no GI50 shown yet.
*Q* Any idea what GI50 came out for CC1(C)OC2C(O)C(CO)OC2(C(F)F)O1 (stereo not drawn) on EKVX?
*A* > 100 µM (inactive)

---

system: T47D; experiment: NCI tumour cell line growth inhibition, 48 h
Active and inactive are the calls of the source. No stated cut-off is given here; in the data, active = GI50 up to about 1.1 µM and inactive = higher.
This section presents compounds with their documented GI50 values.

*Q* Which GI50 reading was recorded for the compound CC(=O)OC1CC2c3cccc4c3C(CC2N(C)C1=O)CN4C(=O)c1ccccc1 (configuration not stated) ?
*A* 18.1 µM (inactive)

***
*Q* Please report the recorded GI50 for COc1cccc(C2SC(=N)Nc3c2c(C)nn3C(=O)Cc2ccccc2)c1 (configuration not stated) .
*A* > 100 µM (inactive)

*Q* Another compound to check: `COc1ccc(CNc2nc3ccccc3nc2-c2cccs2)cc1`
*A* 22.9 µM (inactive)

*Q* Continue with O=C1C2=Cc3ccccc3OC2(O)Oc2ccccc21 (configuration not stated)
*A* > 100 µM (inactive)

*Q* Now the compound COC(=O)NC1C(C)OC(OC2C/C=C(/C)C3C=CC4C(OC5CC(OC6CCC(OC7CC(O)C(OC8CCC(O)C(C)O8)C(C)O7)C(C)O6)C(OC(C)=O)C(C)O5)C(C)CC(C)C4C3(C)/C(O)=C3/C(=O)OC4(CC(C=O)=CC(O)C4/C=C\2C)C3=O)CC1(C)[N+](=O)[O-] (configuration not stated)
*A* 2.06 µM (inactive)

*Q* Record: `CCOC(=O)c1c(C)n(Cc2ccc(Cl)cc2Cl)c2c1cc(O)c1[nH]c3c(c12)CCCC3`
*A* 14.7 µM (inactive)

*Q* And `CC1(C)CC(=O)c2c(nc3ccc4ccccc4c3c2-c2ccc(NC(=O)CCCCC(=O)Nc3ccc(-c4c5c(nc6ccc7ccccc7c46)CC(C)(C)CC5=O)cc3)cc2)C1` ?
*A* > 100 µM (inactive)
